Test: qHTS assay to identify small molecule antagonists of the thyroid receptor (TR) signaling pathway - cell viability counter screen (AID 743064); note: nearly all actives have a fitted effect of over 50% in size
Details: GH3.TRE-Luc viability, CellTiter-Fluor, 24 h; series mostly up to 70.3 µM
Results filed as inconclusive are left out. Active and inactive are the calls of the source. Calls come from the whole dose curve; as a rule, active = well fitted cell-killing curve with a large enough effect in the repeat runs; inconclusive = weak or mixed curves, or effect the other way; inactive = no such curve, though single readings can be large or run the other way.
Measured attribute: outcome

[[record]]
molecule = "COc1cccc(OC)c1"
measured_attribute = "outcome"
meas_value = "inactive"

[[record]]
molecule = "CC(CCO)CCCC(C)(C)O (centres undefined)"
measured_attribute = "outcome"
meas_value = "inactive"

[[record]]
molecule = "COc1nc(C)nc(N)n1"
measured_attribute = "outcome"
meas_value = "inactive"

[[record]]
molecule = "C=CCn1c(=O)n([C@@H]2O[C@H](CO)[C@@H](O)[C@H]2O)c2nc(N)[nH]c(=O)c21"
measured_attribute = "outcome"
meas_value = "inactive"

[[record]]
molecule = "CCO[Si](CCCN=C=O)(OCC)OCC"
measured_attribute = "outcome"
meas_value = "inactive"


outcome lookup needed for CCN1CCN(c2cc3c(cc2F)c(=O)c(C(=O)O)cn3C2CC2)CC1 , thanks.
inactive

Bench note: what outcome did CC1=CC(=O)CCC1 show?
inactive

outcome for C=C(C)C(=O)NCCCN(C)C ?
inactive

Entry under review: O=C1C(CCS(=O)c2ccccc2)C(=O)N(c2ccccc2)N1c1ccccc1 (centres undefined) . Reported outcome?
inactive

Quick one: outcome for CC(C)[N+](C)(C)CC(O)COc1cccc2ccccc12 (centres undefined) ?
inactive

# input molecule: CCCCCCCCCCCl ; wanted: its outcome
inactive

Look at this molecule and give its reported outcome. c1ccc(SCCSc2ccccc2)cc1
inactive

For O=C(O)/C=C/c1ccc(/C=C/C(=O)O)cc1 , what is its reported outcome?
inactive

// query outcome value for entry CC(C)(O)Cc1ccccc1
inactive

----------
Assay: qHTS assay to identify small molecule antagonists of the thyroid receptor (TR) signaling pathway (AID 743065); note: nearly all actives have a fitted effect of over 55% in size
Settings: GH3.TRE-Luc, T3-stimulated luciferase inhibition, 23.5 h; series mostly up to 70.3 µM
Records with an inconclusive call do not appear. Calls of active or inactive are those of the source. Calls follow the shape of the dose curve; as a rule, active = well fitted inhibition curve with a large enough effect in the repeat runs; inconclusive = weak or mixed curves; inactive = no such curve, though single readings can be large or run the other way.
Measured attribute: outcome

Would you please look over these solved cases?
[[record]]
compound = "CCC(C)OC(=O)N1CCCCC1CCO (stereo unspecified)"
measured_attribute = "outcome"
meas_value = "inactive"

[[record]]
compound = "CCC(C(=O)NC(N)=O)c1ccccc1 (stereo unspecified)"
measured_attribute = "outcome"
meas_value = "inactive"

[[record]]
compound = "CC(C)(O)C(=O)c1ccc(OCCO)cc1"
measured_attribute = "outcome"
meas_value = "inactive"

[[record]]
compound = "O=C(O)C(O)[C@H](O)[C@@H](O)[C@H](O)[C@H](O)CO (stereo partly specified)"
measured_attribute = "outcome"
meas_value = "inactive"

[[record]]
compound = "c1ccc(CCCc2ccccn2)cc1"
measured_attribute = "outcome"
meas_value = "inactive"


Next:
I have this compound here, Nc1ccn(C2CO[C@H](CO)O2)c(=O)n1 (stereo partly specified) , and I need its recorded outcome.
inactive

----------
Target: Peroxisome proliferator-activated receptor gamma (Homo sapiens) (UniProt P37231)
Sequence (P37231 whole entry, looked up): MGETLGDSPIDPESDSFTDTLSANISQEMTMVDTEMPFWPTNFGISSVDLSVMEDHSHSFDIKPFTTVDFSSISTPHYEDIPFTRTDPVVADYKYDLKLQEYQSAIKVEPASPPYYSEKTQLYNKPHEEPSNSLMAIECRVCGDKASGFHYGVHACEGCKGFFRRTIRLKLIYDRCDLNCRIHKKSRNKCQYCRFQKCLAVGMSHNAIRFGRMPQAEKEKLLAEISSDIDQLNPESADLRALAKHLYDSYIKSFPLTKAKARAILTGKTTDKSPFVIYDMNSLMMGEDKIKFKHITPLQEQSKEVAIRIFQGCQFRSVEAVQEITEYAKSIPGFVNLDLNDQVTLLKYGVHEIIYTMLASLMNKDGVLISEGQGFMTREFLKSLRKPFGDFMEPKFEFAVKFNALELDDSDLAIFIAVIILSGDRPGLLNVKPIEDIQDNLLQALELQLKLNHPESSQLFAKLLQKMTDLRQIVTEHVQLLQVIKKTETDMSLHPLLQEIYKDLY
Assay: qHTS assay to identify small molecule agonists of the peroxisome proliferator-activated receptor gamma (PPARg) signaling pathway (AID 743094)
Conditions: HEK293H PPARg-UAS-bla, beta-lactamase FRET ratio, 17 h; series mostly up to 57 µM
Records with an inconclusive call do not appear. Calls of active or inactive are those of the source. Calls follow the shape of the dose curve; as a rule, active = well fitted activation curve with a large enough effect in the signal ratio in the repeat runs (not every such curve was filed as active); inconclusive = weak or mixed curves, or effect the other way; inactive = no such curve, though single readings can be large or run the other way; the % refers to the signal ratio.
Measured attribute: activation

[[record]]
molecule = "CC(=O)OC(C)(C)C"
meas_value = "inactive"

[[record]]
molecule = "CCC(C)(C)C1CCC(OC)CC1 (stereo not given)"
meas_value = "inactive"

[[record]]
molecule = "CCCCCC[C@@H](CCC)C(=O)O"
meas_value = "inactive"

[[record]]
molecule = "COc1cc(C(=O)N2CCOCC2)cc(OC)c1OC"
meas_value = "inactive"

[[record]]
molecule = "NC1CCN(c2cccc(Cl)n2)CC1"
meas_value = "inactive"

[[record]]
molecule = "C=C(C)C(=O)NCCC[N+](C)(C)C"
meas_value = "inactive"


Give the measured activation of Cc1nccn1CC1CCc2c(c3ccccc3n2C)C1=O (stereo not given) .
inactive

So what's the measured activation for this one? CC(C=O)Cc1ccc(C(C)C)cc1 (stereo not given)
inactive

Fill in the blank: the reported activation of CC(C)COC(=O)c1ccccc1O is ____.
inactive

Quick one: activation for CC(CCO)CCCC(C)(C)O (stereo not given) ?
inactive

Reference source for all entries: PubChem BioAssay (Tox21)
